Test system: RARb:RXRa (NR concentration 270 nM, RXRa partner concentration 90 nM)
PROCEDURE TEXT: PBM binding z-score (relative to random genomic background probes); higher = stronger binding; sequences stand for … in GC…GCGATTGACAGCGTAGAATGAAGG
OBSERVED PROPERTY: PBM binding z-score
Give your answer as a number; write no unit.

Per the records, this sequence ( ACTAGCAGGCCAAGGGTCACCCAAGATTAGTCCG ) has PBM binding z-score equal to 3.62

The measured PBM binding z-score associated with TAGCCTAGGTCTTTGGGCCAGTATAGTACGCATC reads -0.161

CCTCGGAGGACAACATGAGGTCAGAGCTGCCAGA yielded PBM binding z-score of 3.04

Measured PBM binding z-score, TCTAGCATGCCAGAGGGTCACTCAAGAGGTACGG : 2.11

PBM binding z-score recorded for this sequence, AGAATGAGGTTACCAAAGATCGGGGAAACGCTTG , is 2.09

Reported PBM binding z-score of TGTTGTAGATCAGCAGGTTAAGAAAGCTGGCCAA : -0.157

Lab note: measured PBM binding z-score of ATCGAAAGGTCGAAGATGAGTATACCCACCCGAA was 3.69

Query TCTTGTAGCTCAATAGAGGTTAAGAAAGTGCGCT yields PBM binding z-score of 0.573

The reported PBM binding z-score of the sequence TCTGGTAGATCAGCAGGTTAAGAAAGCTGGCCAA was 0.127

// recorded PBM binding z-score for CGTCCAAGGTCATAGGAGGGCAGTGAAGACAGAT : 5.06

The sequence CCTACTGGACCAAAGGTCATTGATTCCAATGCTC showed PBM binding z-score equal to 4.48

PBM binding z-score for AGAATGAGGTTATTAAGATCGGGGAATTGCGGTC is 1.37

Measured PBM binding z-score of TCTATTAGTTGCAGGGCAACCGACGAGTCCGTTT : 0.851

Please fill in: PBM binding z-score reported for GCTCGGAGGACAAGGTCAGAGTTTTGTCCGTAGA = 3.46

Sample GCTTGTAGATCAAGATTAAGAAAGACTAAGCTAA ; PBM binding z-score observed: -0.426

Looking up TTACCAAGGTGAAACGTCGTTGATGCACGCCTTG , I found its PBM binding z-score recorded as 1.62

Per the records, this sequence ( CCTGCTAGGTTAATGGTCAGCTAAAGCAGCTCGC ) has PBM binding z-score equal to 1.26

The recorded PBM binding z-score for entry ATACCAAGGTGATCGTGAGGTGGTTGATACTAAC equals 0.774

The recorded PBM binding z-score for entry ATCTCTAGATAAAGATAGTTCAGTGAATGCAAAT equals 0.124

Sample TAGCCTGGGTCATGCGGGCCAGTATAGTGTCGGC ; PBM binding z-score observed: 3.18

Reported PBM binding z-score of TAGCCTAGGTCATGGGCCAGAATACCACGCGAAC : 3.73

The recorded PBM binding z-score for entry ACAGACTGGTGATGAAGGTAACTCAGGCTATCAT equals -0.396

Quick note, PBM binding z-score for ATCTCTAGGTAAAAGTTCAGTGGATCCCGAGGAT landed at 2.41

Reported PBM binding z-score of AGTCAAAGTTCAGGACGAGGCAACGTAAAGCACG : 4.37

Noted for CCTATTAGTTGACCATAAGGTCAACCGAAGCTCG : its PBM binding z-score reads 3.72

For reference, reported PBM binding z-score for ATACCAAGGTGATCATGAGGTCGTTGATACTAAC stands at 1.49

###

Tested on: PPARg DBDmut IVT, anti-PPARg (DBD mutation: PPARg1 K132A/R137A, NR concentration 270 nM)
PROCEDURE TEXT: PBM binding z-score (relative to random genomic background probes); higher = stronger binding; sequences stand for … in GC…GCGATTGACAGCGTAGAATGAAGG
OBSERVED PROPERTY: PBM binding z-score
Form: value (number only, do not type unit).

# sequence CCTACTGGGGCAAGGTTACCATAACGCACAGCCA ; its PBM binding z-score = 0.765

Please fill in: PBM binding z-score reported for ATACCAAGGTGATCGTGAGGTCGTTGTTACTAAC = 0.123

// field: PBM binding z-score; key: TAGCCTAGGTCATTGGGCCCGTATAGTACGCATC ; value = -0.654

Reported PBM binding z-score of TCATATAGTTAAAGGTGAAAGTCGAACGATATGA : 1.07

// PBM binding z-score value for CGAACTAGGTCAAGGACAGTCAATCTCCGCACGC : 1.8

TAGCCTACGTCATGGGCCAGTATACCACGCGAAC yielded PBM binding z-score of -0.97

Lab note: ATCTCTAGGTTACAAGTTCAGTGAAAGAGAGGAC gave PBM binding z-score of 3.28

The measured PBM binding z-score associated with GCTGCTAGGTCAGGTAGGTCAGCTAACGGGTACG reads -0.592

Reported PBM binding z-score ( CGAACTAGGTCATTGATAGGACAGTGAATAGTAA ) = 1.01

Lab note: measured PBM binding z-score of TCTTGTAGATTAGCAGGTTAAGAAAGCTGGCCAA was -0.0447

Input GATACACGGTCAGCTAGAGGCCAGAGTATGGAAA . Output PBM binding z-score: -0.554

Record GTAACGAGGGCAAAGTTGATAGCATCTGTCGACG . Reported PBM binding z-score: 0.296

Noted for ATCGAAAGGTCGAAGGTGAATATACCCACCCGAA : its PBM binding z-score reads 1.25

Lab note: CCTACTGGGCCATCATGTCATTGATATCAACGTT gave PBM binding z-score of 0.754

The recorded PBM binding z-score for entry CCTACTGGGCCAAAAAGGTGATTGATGCCGATAA equals -0.242

The value of PBM binding z-score measured for the sequence TCGAGTAGGTTAGAGGCATTCAGAATGGCGTCGA turned out to be -0.771

# PBM binding z-score (sequence: AAAATGAGGTTATACGTAGATCAGGGAAGAAAGT ) is 1.29

// recorded PBM binding z-score for CCTAGTTAGTCAGGAGGTCACACACCGGATATGA : 0.693

Noted for TCTTGTAGACCAGCAGGTTAAGAAAGCTGGCCAA : its PBM binding z-score reads -0.977

Value of measured PBM binding z-score for the entry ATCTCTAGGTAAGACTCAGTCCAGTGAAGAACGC : 2

So for TTCCCAAGGTGAAAGGTCGTTGATGCACGCCTTG , the logged PBM binding z-score turned out to be -0.0355

Lab book: PBM binding z-score of TCGAGTAGGTTACAAATGGGGCATTCAGCTTTCT noted as -0.201

Lab book: PBM binding z-score of CAAACAGGGTCAGCTAGGCCAGAGTAGGGACGGC noted as 0.041

Entry GCAGACAAGTGAAACGCAGGTAACTCAGGGTGGC — recorded PBM binding z-score = -1.2

Record CAAACTAGGTCACGAAAGGACAAAGTCGAATGAC . Reported PBM binding z-score: 2.82

GGAACGAGGGCAAAGTTGATACCATCTGTCGACG has a reported PBM binding z-score of -0.0769

###

Test system: PPARg:RXRa IVT, anti-PPARg (NR concentration 270 nM, RXRa partner concentration 90 nM)
PROCEDURE TEXT: PBM binding z-score (relative to random genomic background probes); higher = stronger binding; sequences stand for … in GC…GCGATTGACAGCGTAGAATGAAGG
Parameter threshold = 2. Response is met when PBM binding z-score meets or exceeds it, else not met.

Hi team, for CCTACTGGGCCACGAAAGGTCATTGAGTCAGTGA , is the recorded PBM binding z-score at or above 2?
met

Textbook exercise: given the entry ATCTCCAGGTAAAAGTTCAGTGAATCCCGAGGAT , state whether its PBM binding z-score is greater than or equal to 2.
met

Is it the case that TCATATAGGTAAAGGTTAAAGTCGAACGATATGA has PBM binding z-score reaching or exceeding 2?
met

# bool: PBM binding z-score of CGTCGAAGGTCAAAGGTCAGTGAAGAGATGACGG >= 2
met

Given the entry TCGAGTAGGTTACCAATGGGGCGTTCAGCTTTCT , answer whether its PBM binding z-score meets or surpasses 2.
met

Could you tell me if the measured PBM binding z-score of CGTCCAAGGTCAGAGAGCTCAGTGAATGCCGAGT reaches 2 or more?
not met

Say whether ATACCATGGTGATCGTGAGGTCGTTGATACTAAC shows PBM binding z-score of 2 or more.
not met

API: above_or_equal(metric=PBM binding z-score, cutoff=2) for item ATCGGAAGGTCGTGAGGTGAGTATACAGAAAGGC
not met

Evaluate CCGACTGGGGCAAGATTACCATAACGCACAGCCA : PBM binding z-score at minimum 2?
met

Check this sequence for PBM binding z-score at or above 2: ATCTCTAGGTAAAAGTTCAGTAAATCCCGAGGAT
met

// inclusive: PBM binding z-score at least 2? input: GGAACGAAGGCAAAGTTGATAGCATCTGTCGACG
not met

Textbook exercise: given the entry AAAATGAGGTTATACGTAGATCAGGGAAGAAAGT , state whether its PBM binding z-score is greater than or equal to 2.
met

Test whether the sequence TCCTATAGGTAAACAGGTGAAAGTCCGTAAGTTA records PBM binding z-score of 2 or higher.
met

Tell me whether PBM binding z-score is at least 2 here: CGTCCAAGGTCAATGCCAGGTCAGTGAAAGCATT
met

Could you tell me if the measured PBM binding z-score of CGTCCAAGGTCAGAGAGGGCAGTGAATGCCGAGT reaches 2 or more?
met

// inclusive: PBM binding z-score at least 2? input: TCTAGTTGGTCACGGAGGTAACACACGACGGGTA
met

Answer whether PBM binding z-score of TCTGCTAGGTCTGTTGGTCAGCTAACGAGCTGCC is greater than or equal to 2.
not met

PBM binding z-score >= 2 for CCTACTGGGACAAAGGTCATTGATTCCAATGCTC ?
met

Has AGTTAAAGTTCATCTAGGTAACGTAAGATATGCT a recorded PBM binding z-score greater than or equal to 2?
met

Item ATATGTGGGTTAAGGGTCATTCAGGTTGGTTCGC with PBM binding z-score of 2 or above?
met

Record CTACCAAGGTGAACAAGGTCGTGGATTACTATTC ; criterion: PBM binding z-score no lower than 2. Met?
met

Reported PBM binding z-score at or above 2? CAAACTAGGTCGCAGAGGTCAAAGTCCGTGCGTA
met

Would you say ATCGAAAGGTCGGGGTGAGTATAGAGAAAGGGAA shows PBM binding z-score at minimum 2?
met

Evaluate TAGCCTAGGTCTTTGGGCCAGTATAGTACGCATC : PBM binding z-score at minimum 2?
not met

Can CCTCTGAGGACAGAAGGTCAGAGCTGTCCGCTTT be said to have PBM binding z-score at or above 2?
not met

Is it the case that TCTGGGAGGACACGAAGGTCAGAGCTTTCCAGAG has PBM binding z-score reaching or exceeding 2?
not met

Please indicate if the recorded PBM binding z-score for CTACCAAGGTGAACAAGGCCGTTGATTACTATTC meets or exceeds 2.
met

Confirm if PBM binding z-score reported for the sequence GCTCGGAAGACAAGGTCAGAGCTTTGTCCGTAGA is 2 or above.
not met

Does PBM binding z-score meet or surpass 2 for TCTAGTTGGTCATAGGTCACACACTCGAAATGCG ?
met

Is PBM binding z-score for AGAATGAGGTTACCAAGGATCAGGGAAACGCTTG at or above 2?
met

In plain terms: is recorded PBM binding z-score at least 2 for CCTAGCAGGCCAATCTGCGTCACTCAAGGCTTGA ?
not met

Threshold query (PBM binding z-score >= 2) on ACAGACCGGTGAGTGAAGGTAACTCAGCTGGACG
not met

Check the entry ATATGTAGGTTAAGGGTCATTAAGGTTGGTTCGC : does PBM binding z-score equal or exceed 2?
met

Could you tell me if the measured PBM binding z-score of GTACCAAGGTGAATAGGTGGTTGATGAGTAGGCG reaches 2 or more?
not met

Assess whether reported PBM binding z-score for TCTTGTAGAACAGCAGGTTAAGAAAGCTGGCCAA sits at 2 or higher.
not met

PBM binding z-score >= 2 for CGTCCAAGGTCAAGGTTAGTGAAAGAGACTCGAA ?
met

Has CAGCCTAGGTCAGGGCCAGTATGGGAGGAACGTT a recorded PBM binding z-score greater than or equal to 2?
not met

Tell me whether PBM binding z-score is at least 2 here: TCATATAGGTAAACAGGTGAAAGCCCGTAAGTTA
met

Has TCTAGTTGCTCACGGAGGTCACACACGACGGGTA a recorded PBM binding z-score greater than or equal to 2?
met

Quick check: does TATACAGGCTCAAAGGCCAGAGTACGAATGTCGA have PBM binding z-score greater than or equal to 2?
not met

Does the sequence ACTTACGGGGCAACGAGGTTATAGCACGCGTATA have recorded PBM binding z-score that is 2 or more?
met

Can ATCTCTAGGTACCCAAGTTCAGTGAATGCCGAAC be said to have PBM binding z-score at or above 2?
not met

Quick check: does TAGCCTAGGTGATGGGCCAGTATACCACGCGAAC have PBM binding z-score greater than or equal to 2?
not met

Decide: is the reported value of PBM binding z-score for TCTAGCAGGCCAGAGGGTCACACAAGAGGTACGG equal to or greater than 2?
not met

PBM binding z-score >= 2 for GGAACGAGGGCCAGTTGATAGCAGAGTTTGATGG ?
not met

# check: PBM binding z-score of GCTGCTAGGTCAACTGATGGTCGGCTAAAGCTCG is greater than or equal to 2
met

Record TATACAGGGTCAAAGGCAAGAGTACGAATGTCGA ; criterion: PBM binding z-score no lower than 2. Met?
met

Record ACTAGCAGGCCAAGTTTAGGTCACTCAAACAAAG ; criterion: PBM binding z-score no lower than 2. Met?
not met

Is reported PBM binding z-score greater than or equal to 2 here: GTACCAAGGTGAATAGGTCTTTGATGAGTAGGCG
met
